- assay.target: GlcNAc(b1-2)[GlcNAc(b1-4)]Man(a1-3)[GlcNAc(b1-4)][GlcNAc(b1-2)[GlcNAc(b1-6)]Man(a1-6)]Man(b1-4)GlcNAc(b1-4)[Fuc(a1-6)]GlcNAc
- run.description: glycan array binding signal (z-score within array); higher = stronger binding
- condition: glycan notation: IUPAC condensed, linker removed
Shown is part of a subset that was picked to be rich in the strongest signals.
result.type: glycan array binding signal (z-score)

1) Mg1lysM (Mycosphaerella graminicola) (protein) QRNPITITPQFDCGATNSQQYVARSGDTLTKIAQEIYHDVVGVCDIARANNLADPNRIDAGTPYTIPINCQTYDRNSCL | -0.071
